assayTarget: human APJ receptor (Homo sapiens)
Construct: expressed in transfected cells
assayNotes: Intracellular cAMP accumulation assay (APJ hcAMP, HTRF)
Format: cell-based
conditions: Table 2; HEK293 cells stably expressing human APJ receptor; read-out: APJ cAMP Human EC50
pEC50: −log10 of the molar value.
Hi there, I'd appreciate the recorded pEC50 for every entry that follows.

I am curious: what pEC50 value has been reported for CCC[C@@H](NC(=O)c1ccc(-c2cc(Cl)ccc2-c2nc3nc(C)ccc3[nH]2)c(C(=O)O)c1)c1ccccc1 ? 7.00 to 8.00

What value of measured pEC50 is listed for CCC[C@@H](NC(=O)c1ccc(-c2cc(Cl)ccc2-c2nc3cc(C)ccc3[nH]2)c(C(=O)O)c1)c1ccccc1 ? > 8.00

Tell me the measured pEC50 of CCC[C@@H](NC(=O)c1ccc(-c2cc(Cl)ccc2-c2nc3ncccc3[nH]2)c(C(=O)O)c1)c1ccccc1 , please. 7.00 to 8.00

Any idea what pEC50 was measured for CCC[C@@H](NC(=O)c1ccc(-c2cc(C)ccc2-c2nc3cc(OC)ccc3[nH]2)c(C(=O)O)c1)c1ccccc1 ? > 8.00

Look up pEC50 for this compound: COC[C@@H](NC(=O)c1ccc(-c2ccccc2-c2nc3cc(C(C)(C)C)ccc3[nH]2)c(C(=O)O)c1)c1ccccc1 > 8.00

Requested field: pEC50. Item: CCC[C@@H](NC(=O)c1ccc(-c2cc(Cl)ccc2-c2nc3ccccc3[nH]2)c(-c2n[nH]c(=O)o2)c1)c1ccccc1 7.00 to 8.00

Record request: pEC50 value, item CCC[C@@H](NC(=O)c1ccc(-c2cc(Cl)ccc2-c2nc3cc4c(cc3[nH]2)OCO4)c(C(=O)O)c1)c1ccccc1 7.00 to 8.00

====

assayTarget: human APJ receptor (Homo sapiens, UniProt P35414)
Construct: expressed in transfected cells
Sequence (P35414 whole entry): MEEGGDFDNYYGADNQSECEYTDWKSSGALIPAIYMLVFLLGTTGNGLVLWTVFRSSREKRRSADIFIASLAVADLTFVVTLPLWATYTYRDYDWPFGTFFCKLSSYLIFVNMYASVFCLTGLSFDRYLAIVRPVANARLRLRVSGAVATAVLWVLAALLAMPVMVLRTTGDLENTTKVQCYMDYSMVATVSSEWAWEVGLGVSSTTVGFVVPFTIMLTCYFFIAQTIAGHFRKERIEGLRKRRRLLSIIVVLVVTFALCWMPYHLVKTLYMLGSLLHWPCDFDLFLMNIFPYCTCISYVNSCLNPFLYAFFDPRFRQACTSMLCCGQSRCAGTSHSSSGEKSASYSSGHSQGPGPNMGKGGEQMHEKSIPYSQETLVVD
assayNotes: Intracellular cAMP accumulation assay (APJ hcAMP, HTRF)
Type: cell-based
conditions: Table 2; HEK293 cells stably expressing human APJ receptor; read-out: APJ cAMP Human EC50
Please provide measured EC50 for the entries that follow.

Fill in the blank: the reported EC50 of CCC[C@@H](NC(=O)c1ccc(-c2cc(Cl)ccc2-c2nc3cc(Cl)ccc3[nH]2)c(C(=O)O)c1)c1ccccc1 is ____. < 10 nM

Could you share which EC50 value was measured for COc1ccccc1[C@@H](C)NC(=O)c1ccc(-c2cc(Cl)ccc2-c2nc3ccccc3[nH]2)c(C(=O)O)c1 ? < 10 nM

Sample CCC[C@@H](NC(=O)c1ccc(-c2cc(Cl)ccc2-c2nc3ncc(C)cc3[nH]2)c(C(=O)O)c1)c1ccccc1 — what was its EC50? 10 to 100 nM

Given the entry CCC[C@@H](NC(=O)c1ccc(-c2cc(Cl)ccc2-c2nc3cc(C4CC4)ccc3[nH]2)c(C(=O)O)c1)c1ccccc1 , report its measured EC50. < 10 nM

====

Field: EC50. Provide a value for each of the compounds that follow.
assayTarget: human APJ receptor (Homo sapiens, UniProt P35414)
Construct: expressed in transfected cells
assayNotes: Intracellular cAMP accumulation assay (APJ hcAMP, HTRF)
Format: cell-based
conditions: Table 1; HEK293 cells stably expressing human APJ receptor; inhibition of forskolin-mediated cAMP production; read-out: APJ hcAMP EC50

Look up EC50 with human APJ receptor (Homo sapiens, UniProt P35414) for this compound: CCC[C@H](NC(=O)c1ccc(-c2c(Cl)cccc2-c2nc3cc(OC)c(F)cc3[nH]2)c(C(=O)O)c1)c1ccc(F)cc1 (single isomer, unassigned) < 10 nM

Lookup: EC50 / human APJ receptor (Homo sapiens, UniProt P35414) / CCC[C@@H](NC(=O)c1ccc(-c2ccc(F)cc2-c2nc3cc(C(C)(C)C)ccc3[nH]2)c(C(=O)O)c1)c1ccccc1 10 to 100 nM

Please tell me: EC50 of CCCC(NC(=O)c1ccc(-c2c(Cl)cccc2-c2nc3cc(Cl)c(F)cc3[nH]2)c(C(=O)O)c1)C1CCCCC1 (single isomer, unassigned) , system human APJ receptor (Homo sapiens, UniProt P35414)? < 10 nM

API: value(readout= EC50, system= human APJ receptor (Homo sapiens, UniProt P35414), query= CCC[C@@H](NC(=O)c1ccc(-c2c(C)cccc2-c2nc3ccccc3n2C)c(C(=O)O)c1)c1ccccc1 ) 10 to 100 nM

Record lookup: for human APJ receptor (Homo sapiens, UniProt P35414), what EC50 belongs to CCC[C@@H](NC(=O)c1ccc(-c2cc(OC)ccc2-c2nc3cc(C(C)(C)C)ccc3[nH]2)c(C(=O)O)c1)c1ccccc1 ? < 10 nM

EC50 of COc1cc2nc(-c3cccc(Cl)c3-c3ccc(C(=O)N[C@H](c4ccc(Cl)cc4)C4CC4)cc3C(=O)O)[nH]c2cc1F (single isomer, unassigned) on human APJ receptor (Homo sapiens, UniProt P35414)? < 10 nM

// fetch human APJ receptor (Homo sapiens, UniProt P35414) EC50 for CCC[C@H](NC(=O)c1ccc(-c2cc(Cl)ccc2-c2nc3ccccc3[nH]2)c(C(=O)O)c1)c1ccccc1 10 to 100 nM

Lab note: need EC50 with human APJ receptor (Homo sapiens, UniProt P35414) for entry O=C(NC(CC1CCOCC1)c1ccccc1)c1ccc(-c2cc(Cl)ccc2-c2nc3ccccc3[nH]2)c(C(=O)O)c1 (stereo not shown) [Example 216] , please look it up. 101 to 500 nM

Give human APJ receptor (Homo sapiens, UniProt P35414) EC50 for CCC[C@@H](NC(=O)c1ccc(-c2c(C)cccc2-c2nc3cc(OC)ccc3[nH]2)c(C(=O)O)c1)c1ccccc1 < 10 nM

Recorded EC50 for CCC[C@@H](NC(=O)c1ccc(-c2c(F)cccc2-c2nc3cc(C(C)(C)C)ccc3[nH]2)c(C(=O)O)c1)c1ccccc1 with human APJ receptor (Homo sapiens, UniProt P35414), please? < 10 nM

Notebook: pull reported EC50 for human APJ receptor (Homo sapiens, UniProt P35414), entry CCC[C@@H](NC(=O)c1ccc(-c2c(Cl)cccc2-c2nc3cccc(O)c3[nH]2)c(C(=O)O)c1)c1ccccc1 (atropisomer, axis not shown) [Example 99] 10 to 100 nM

Any idea what EC50 came out for CCC[C@@H](NC(=O)c1ccc(-c2c(Cl)cccc2-c2nc3cccc(O)c3[nH]2)c(C(=O)O)c1)c1ccccc1 (atropisomer, axis not shown) [Example 92] on human APJ receptor (Homo sapiens, UniProt P35414)? < 10 nM

Lookup: EC50 / human APJ receptor (Homo sapiens, UniProt P35414) / CCC[C@@H](NC(=O)c1cc(C(=O)O)c(-c2cc(Cl)ccc2-c2nc3cc(C(C)(C)C)ccc3[nH]2)cc1C)c1ccccc1 < 10 nM

# get_value(readout= EC50, system= human APJ receptor (Homo sapiens, UniProt P35414)) for COc1cc2[nH]c(-c3cccc(Cl)c3-c3ccc(C(=O)N4CCC(O)CC4)cc3C(=O)O)nc2cc1F 10 to 100 nM

Give recorded EC50 with human APJ receptor (Homo sapiens, UniProt P35414) for the following compound: CCC[C@@H](NC(=O)c1ccc(-c2ccccc2-c2nc3cc(C(C)(C)C)ccc3[nH]2)c(C(=O)O)c1)c1ccccc1 10 to 100 nM

Any idea what EC50 came out for CCC[C@H](NC(=O)c1ccc(-c2c(Cl)cccc2-c2nc3ccccc3[nH]2)c(C(=O)O)c1)c1ccc(Cl)cc1 on human APJ receptor (Homo sapiens, UniProt P35414)? < 10 nM

Provide the documented EC50 with human APJ receptor (Homo sapiens, UniProt P35414) as the system for CCC[C@H](NC(=O)c1ccc(-c2c(Cl)cccc2-c2nc3cc(Cl)c(F)cc3[nH]2)c(C(=O)O)c1)c1ccncc1 (single isomer, unassigned) < 10 nM

Param readout= EC50; system= human APJ receptor (Homo sapiens, UniProt P35414); entry= CCC[C@@H](NC(=O)c1ccc(-c2cc(Cl)ccc2-c2nc3cc(C(C)(C)C)ccc3[nH]2)c(C(=O)O)c1)c1ccccc1 ; returns value. < 10 nM

Field: EC50 (human APJ receptor (Homo sapiens, UniProt P35414)). Entry: CCCC(NC(=O)c1ccc(-c2c(Cl)cccc2-c2nc3ccccc3[nH]2)c(C(=O)O)c1)C1CCCCCC1 (single isomer, unassigned) < 10 nM

Form field: EC50 recorded for CCCC(NC(=O)c1ccc(-c2c(Cl)cccc2-c2nc3ccccc3[nH]2)c(C(=O)O)c1)c1c(F)cccc1OC (single isomer, unassigned) with human APJ receptor (Homo sapiens, UniProt P35414) (enter value) < 10 nM

Query for human APJ receptor (Homo sapiens, UniProt P35414): what EC50 does the record show for CCC[C@@H](NC(=O)c1ccc(-c2cc(Cl)ccc2-c2nc3ccccc3[nH]2)c(C(=O)NS(=O)(=O)c2ccc(Cl)cc2)c1)c1ccccc1 ? 101 to 500 nM

Hello, I am looking for reported EC50 with human APJ receptor (Homo sapiens, UniProt P35414) for CCC[C@@H](NC(=O)c1ccc(-c2cc(Cl)ccc2-c2nc3ccccc3[nH]2)c(C(=O)NC#N)c1)c1ccccc1 . Could you help? 101 to 500 nM

Item CCC[C@@H](NC(=O)c1ccc(-c2ccccc2-c2nc3ccccc3[nH]2)c(C(=O)O)c1)c1ccccc1 with human APJ receptor (Homo sapiens, UniProt P35414) - EC50? < 10 nM

Checklist item: EC50 tested on human APJ receptor (Homo sapiens, UniProt P35414), entry CCC[C@@H](NC(=O)c1ccc(-c2cc(Cl)ccc2-c2nc3ncc(C)cc3[nH]2)c(C(=O)O)c1)c1ccccc1 , value? 10 to 100 nM

Record lookup: for human APJ receptor (Homo sapiens, UniProt P35414), what EC50 belongs to CCCC(NC(=O)c1ccc(-c2cc(Cl)ccc2-c2nc3cc(OC)ccc3[nH]2)c(C(=O)O)c1)c1ccccc1OC (stereo not shown) ? < 10 nM

// data source = patent US11498903B2
